# Substrate: O=C1c2c(O)cc(O)cc2O[C@H](c2ccc(O)cc2)[C@H]1O
# Test: purified protein
# Type: biochemical, Camellia sinensis
# Experimental Context: apparent Km, NADPH, 0.1 M potassium phosphate pH 7.0, 30 °C

- Protein: "CsDFRa (Camellia sinensis) (protein) MKDSVASATASAPGTVCVTGAAGFIGSWLVMRLLERGYIVRATVRDPANLKKVKHLLDLPKADTNLTLWKADLNEEGSFDEAIEGCSGVFHVATPMDFESKDPENEVIKPTINGVLSIIRSCTKAKTVKRLVFTSSAGTVNVQEHQQPVFDENNWSDLDFINKKKMTGWMYFVSKTLAEKAAWEAAKENNIDFISIIPTLVVGPFIMPTFPPSLITALSPITRNEGHYSIIKQGQFVHLDDLCESHIFLYERPQAEGRYICSSHDATIHDLAKLMREKWPEYNVPTEFKGIDKDLPVVSFSSKKLIGMGFEFKYSLEDMFRGAIDTCREKGLLPHSFAENPVNGNKV"
  Km / µM: 145.10

Origin of measurements: paper PMC9250652
